B1: Gamma-crystallin S, residues 96 to 176; numbered along this chain, P22914 (parent)
chain: IQIFEKGDFSGQMYETTEDCPSIMEQFHMREIHSCKVLEGVWIFYELPNYRGRQYLLDKKEYRKPIDWGAASPAVQSFRRI

Variants of: B1
method: abundance fitness (aPCA) (normalised: wild type 0, dead -1); higher = more abundant; growth selection in yeast, the domain comes from the species named
condition-context: Homo sapiens
Form field: abundance fitness (one value per entry).
property-label: abundance fitness

>>> df
                            residue_sequence     property_label  reported_measurement
 0  IQIFEKGDFSGQMYETTEDCPSIMEQFHMREIHSCKVLEGVWIFYELPNYRGRQYLLDKKEYRKPIDWGAASPAVQSFRRN [I81N]  abundance fitness                 0.165
 1  IQIFEKGDFSGQMYETTEDCPSIMEQFHMREIHSCKVLEGVWIFYELPNYRGRQYLLDKKEYRKPIFWGAASPAVQSFRRI [D67F]  abundance fitness                -0.036
 2  IKIFEKGDFSGQMYETTEDCPSIMEQFHMREIHSCKVLEGVWIFYELPNYRGRQYLLDKKEYRKPIDWGAASPAVQSFRRI [Q2K]  abundance fitness                 0.022
 3  IQIFEKGDFSGQMYETTEDCPSIMEQFHMREIHSCKVLEGVWIFYELPNYRGRQYLLDKWEYRKPIDWGAASPAVQSFRRI [K60W]  abundance fitness                -0.116
 4  IQIFEKGDFSGQMYETTEDCPSIMEQFHMREIHSCNVLEGVWIFYELPNYRGRQYLLDKKEYRKPIDWGAASPAVQSFRRI [K36N]  abundance fitness                -0.037
 5  IQIFEKGDFSGQMYETTEDCPTIMEQFHMREIHSCKVLEGVWIFYELPNYRGRQYLLDKKEYRKPIDWGAASPAVQSFRRI [S22T]  abundance fitness                 -0.08
 6  IQIFEKGDFSGQMYETTEDCPSIMEQFHMREIHSQKVLEGVWIFYELPNYRGRQYLLDKKEYRKPIDWGAASPAVQSFRRI [C35Q]  abundance fitness                -0.803
 7  IQIFEKGDFSGQMYETTMDCPSIMEQFHMREIHSCKVLEGVWIFYELPNYRGRQYLLDKKEYRKPIDWGAASPAVQSFRRI [E18M]  abundance fitness                -0.066
 8  IQIFEKGDFSGQMYETTEDCPSIMEQFHMREIHSCKVLEGVWIFYELPNYRGRQYGLDKKEYRKPIDWGAASPAVQSFRRI [L56G]  abundance fitness                 0.064
 9  IQIFEKGDFSGQMYEMTEDCPSIMEQFHMREIHSCKVLEGVWIFYELPNYRGRQYLLDKKEYRKPIDWGAASPAVQSFRRI [T16M]  abundance fitness                 0.061
10  IQIFEKGDFSGQMYETTEDCPSIMEQFHMREIHSCAVLEGVWIFYELPNYRGRQYLLDKKEYRKPIDWGAASPAVQSFRRI [K36A]  abundance fitness                 0.017

meta.source: the Human Domainome abundance scans (Beltran et al. 2025)
